Here, each record is paired with measured IC50 data.
Molecular target: T1, FLT-1 IgG (UniProt P17948 27-758)
T1 construct: Construct only cited from Park et al. 1994; also called FLT-IgG; FLT-1 receptor-IgG chimera; not shown: IgG part of the chimera (captured by anti-human IgG Fc)
T1 sequence (P17948 27-758): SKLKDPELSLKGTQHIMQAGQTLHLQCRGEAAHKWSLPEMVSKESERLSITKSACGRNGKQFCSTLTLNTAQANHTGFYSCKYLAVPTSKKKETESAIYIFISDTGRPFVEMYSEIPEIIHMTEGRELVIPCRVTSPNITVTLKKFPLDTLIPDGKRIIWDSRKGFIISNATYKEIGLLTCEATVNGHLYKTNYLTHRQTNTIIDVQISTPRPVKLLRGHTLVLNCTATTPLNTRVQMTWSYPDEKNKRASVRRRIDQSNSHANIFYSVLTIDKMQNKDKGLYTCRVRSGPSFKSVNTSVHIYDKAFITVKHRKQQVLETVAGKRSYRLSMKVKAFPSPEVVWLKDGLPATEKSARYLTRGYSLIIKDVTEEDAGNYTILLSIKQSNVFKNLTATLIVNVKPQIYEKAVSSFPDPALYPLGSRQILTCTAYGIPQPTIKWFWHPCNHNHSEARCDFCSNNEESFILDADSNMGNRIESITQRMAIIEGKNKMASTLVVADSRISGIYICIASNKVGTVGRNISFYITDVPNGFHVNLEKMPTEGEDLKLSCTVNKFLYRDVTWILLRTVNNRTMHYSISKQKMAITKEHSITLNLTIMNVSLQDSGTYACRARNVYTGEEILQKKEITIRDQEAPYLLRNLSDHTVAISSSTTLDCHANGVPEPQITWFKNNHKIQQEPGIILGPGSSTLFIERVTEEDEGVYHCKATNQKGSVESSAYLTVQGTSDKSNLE
Assay: competition with 125I-VEGF165 for FLT-1-IgG, radioligand plate assay

Previously resolved entries follow.
binder | IC50
H11A, H12A, E13A VEGF (ligand, VEGF165 mutant from 293 cells, conditioned medium) APMAEGGGQNAAAVVKFMDVYQRSYCHPIETLVDIFQEYPDEIEYIFKPSCVPLMRCGGCCNDEGLECVPTEESNITMQIMRIKPHQGQHIGEMSFLQHNKCECRPKKDRARQENPCGPCSERRKHLFVQDPQTCKCSCKNTDSRCKARQLELNERTCRCDKPRR | 0.62 ng/mL
K107A, K108A VEGF (ligand, VEGF165 mutant from 293 cells, conditioned medium) APMAEGGGQNHHEVVKFMDVYQRSYCHPIETLVDIFQEYPDEIEYIFKPSCVPLMRCGGCCNDEGLECVPTEESNITMQIMRIKPHQGQHIGEMSFLQHNKCECRPAADRARQENPCGPCSERRKHLFVQDPQTCKCSCKNTDSRCKARQLELNERTCRCDKPRR | 2.94 ng/mL

// switching to the query binder
Inquiry: Item E38A VEGF (ligand, VEGF165 mutant from 293 cells, conditioned medium) APMAEGGGQNHHEVVKFMDVYQRSYCHPIETLVDIFQAYPDEIEYIFKPSCVPLMRCGGCCNDEGLECVPTEESNITMQIMRIKPHQGQHIGEMSFLQHNKCECRPKKDRARQENPCGPCSERRKHLFVQDPQTCKCSCKNTDSRCKARQLELNERTCRCDKPRR : provide IC50
Reply text: 0.87 ng/mL
